- ASSAYED SYSTEM: Human TRPV3 (Homo sapiens)
- Construct: expressed in transfected cells; host or cells: CHO cells (G-418 selected)
- ASSAY REMARKS: 45Calcium uptake assay: inhibition of 2-APB induced cellular uptake of radioactive calcium
- Type: cell-based
- CONDITIONS USED: 10.0 μM compound; human TRPV3 expressing CHO cells; 2-APB 500 μM; read-out: Percentage inhibition at 10.0 μM
- Protocol: The illustrative examples of the present invention are screened for TRPV3 activity according to a modified procedure described in Toth, A. et al. Life Sciences (2003), 73, 487-498. […] The inhibition of TRPV3 receptor activation was followed as inhibition of 2-APB induced cellular uptake of radioactive calcium. […] Radioactivity in the lysate was measured in Packardt Top count after addition of liquid scintillant. […]
Listing of recorded inhibition at 10 µM by entry.
# value in %; strip the unit string

The following molecules have reported results that may help.
COc1cccc(CC(=O)N[C@@H]2CC3(CCC3)Oc3c(Cl)cccc32)c1OC1CCCC1 [Example 5]    86.8
COc1cccc(CCCC(=O)NC2CC3(CCC3)Oc3ccc(Cl)cc32)c1OC1CCCC1 (centres unmarked) [Example 92]    95.8
CCCOc1c(CCC(=O)NC2CC3(CCC3)Oc3c(Cl)cc(Cl)cc32)cccc1NS(C)(=O)=O (centres unmarked) [Example 61]    93.8
COc1cccc(CCC(=O)NC2CC3(CCC3)Oc3cccc(OCc4ccccc4)c32)c1OC1CCCC1 (centres unmarked) [Example 50]    77.6
O=C(CCc1cccc2c1OCCO2)NC1CC2(CCC2)Oc2ccc(Cl)cc21 (centres unmarked) [Example 84]    83.2
COc1ccc(CCC(=O)NC2CC3(CCC3)Oc3ccc(Cl)cc32)cc1Cl (centres unmarked) [Example 40]    93.5
O=C(CCc1ccc(OC(F)F)c2ccccc12)N[C@@H]1CC2(CCC2)Oc2ccc(Cl)cc21 [Example 71]    95.5
COc1ccc2ccccc2c1CCC(=O)N[C@@H]1CC2(CCC2)Oc2ccc(Cl)cc21 [Example 67]    84.7

q: Provide one value: measured inhibition at 10 µM of O=C(Cc1cccc2ccccc12)NC1CC2(CCC2)Oc2cccc(O)c21 (centres unmarked) [Example 17]
a: 70

q: Given COc1cccc(CC(=O)NC2CC3(CCC3)Oc3ccc(Cl)cc32)c1OC1CCCC1 (centres unmarked) [Example 4] , respond with its inhibition at 10 µM.
a: 66.2

q: Give a short answer stating reported inhibition at 10 µM for O=C(Cc1ccc2c(c1)OCO2)NC1CC2(CCC2)Oc2ccc(Cl)cc21 (centres unmarked) [Example 23] .
a: 65.3

q: # return recorded inhibition at 10 µM for input O=C(CCc1ccccc1-c1ccccn1)NC1CC2(CCC2)Oc2ccc(Cl)cc21 (centres unmarked) [Example 35]
a: 97.6

----------
- ASSAYED SYSTEM: Human TRPV3 (Homo sapiens, UniProt Q8NET8)
- Construct: expressed in transfected cells; host or cells: CHO cells (G-418 selected)
- ASSAY REMARKS: 45Calcium uptake assay: inhibition of 2-APB induced cellular uptake of radioactive calcium
- Format: cell-based
- CONDITIONS USED: 1.0 μM compound; human TRPV3 expressing CHO cells; 2-APB 500 μM; read-out: Percentage inhibition at 1.0 μM
Listed here: items and their measured inhibition at 1 µM.
Please respond with the number in % and leave the unit unwritten.

Worked cases, answers included:
COc1ccc(CCC(=O)NC2CC3(CCC3)Oc3ccc(Cl)cc32)cc1Cl (centres unmarked)    6.8
COc1cccc(CCC(=O)NC2CC3(CCC3)Oc3cc(Cl)ccc32)c1OC1CCCC1 (centres unmarked)    59.2
O=C(CCc1ccccc1-c1ccccn1)NC1CC2(CCC2)Oc2ccc(Cl)cc21 (centres unmarked)    44.8
O=C(Cc1cccc2ccccc12)N[C@@H]1CC2(CCC2)Oc2c(F)cc(F)cc21    23.6

q: For the compound COc1cccc(CCC(=O)NC2CCSc3ccc(Cl)cc32)c1OC1CCCC1 (centres unmarked) , give its measured inhibition at 1 µM value.
a: 38

----------
- ASSAYED SYSTEM: Human TRPV3 (Homo sapiens, UniProt Q8NET8)
- Construct: expressed in transfected cells; host or cells: CHO cells (G-418 selected)
- ASSAY REMARKS: 45Calcium uptake assay: inhibition of 2-APB induced cellular uptake of radioactive calcium
- Assay type: cell-based
- CONDITIONS USED: 10.0 μM compound; human TRPV3 expressing CHO cells; 2-APB 500 μM; read-out: Percentage inhibition at 10.0 μM
The entries below are paired with their reported inhibition at 10 µM.
Give a bare numeral; the unit % is implied.

Cc1c(CC(=O)NC2CC3(CCC3)Oc3ccc(F)cc32)[nH]c2ccc(F)cc12 (stereo not shown) [Example 24]    89.9
CS(=O)(=O)Nc1cccc(CCC(=O)NC2CC3(CCC3)Oc3c(Cl)cc(Cl)cc32)c1OCC1CC1 (stereo not shown) [Example 64]    95.4
CCOc1c(CCC(=O)NC2CC3(CCC3)Oc3c(Cl)cccc32)cccc1OC (stereo not shown) [Example 46]    99.7

Query compound follows.
q: Tell me its inhibition at 10 µM given COc1cccc(CCCC(=O)N[C@H]2CC3(CCC3)Oc3ccc(Cl)cc32)c1OC1CCCC1 [Example 94] as the entry.
a: 97.2

----------
- ASSAYED SYSTEM: Human TRPV3 (Homo sapiens)
- Construct: expressed in transfected cells; host or cells: CHO cells (G-418 selected)
- ASSAY REMARKS: 45Calcium uptake assay: inhibition of 2-APB induced cellular uptake of radioactive calcium
- Type: cell-based
- CONDITIONS USED: 10.0 μM compound; human TRPV3 expressing CHO cells; 2-APB 500 μM; read-out: Percentage inhibition at 10.0 μM
READOUT: inhibition at 10 µM (%)
API: value field is a number in %; no unit string.

Guide cases for inhibition at 10 µM, answers given:
O=C(CCc1ccccc1OC1CCCC1)N[C@@H]1CC2(CCC2)Oc2c(Cl)cccc21    97.4
CC(C)Oc1ccc(NS(C)(=O)=O)cc1CCC(=O)NC1CC2(CCC2)Oc2c(Cl)cc(Cl)cc21 (stereo not shown)    82.2
Cc1cccc(CCC(=O)N[C@H]2CC3(CCC3)Oc3ccc(Cl)cc32)c1OC1CCCC1    63.6

q: // fetch inhibition at 10 µM for COc1ccc2cc([C@H](C)C(=O)N[C@@H]3CC4(CCC4)Oc4ccc(Cl)cc43)ccc2c1 ; system: Human TRPV3 (Homo sapiens)
a: 61.7

----------
- ASSAYED SYSTEM: Human TRPV3 (Homo sapiens)
- Construct: expressed in transfected cells; host or cells: CHO cells (G-418 selected)
- ASSAY REMARKS: 45Calcium uptake assay: inhibition of 2-APB induced cellular uptake of radioactive calcium
- Assay type: cell-based
- CONDITIONS USED: 10.0 μM compound; human TRPV3 expressing CHO cells; 2-APB 500 μM; read-out: Percentage inhibition at 10.0 μM
- Description: The illustrative examples of the present invention are screened for TRPV3 activity according to a modified procedure described in Toth, A. et al. Life Sciences (2003), 73, 487-498. […] The inhibition of TRPV3 receptor activation was followed as inhibition of 2-APB induced cellular uptake of radioactive calcium. […] Radioactivity in the lysate was measured in Packardt Top count after addition of liquid scintillant. […]
Kind request: treat 90% as inclusive, so inhibition at 10 µM at 90% or higher is label 1, anything lower is label 0.

Please review the following examples before continuing.
COc1ccc2[nH]c(C)c(CC(=O)NC3CC4(CCC4)Oc4ccc(Cl)cc43)c2c1 (centres unmarked)    label 0
O=C(CCc1ccc2c(c1)OCCO2)NC1CC2(CCC2)Oc2ccc(F)cc21 (centres unmarked)    label 0
CC(C)Oc1c(CCC(=O)NC2CC3(CCC3)Oc3c(Cl)cc(Cl)cc32)cccc1NS(C)(=O)=O (centres unmarked)    label 1

With those in mind, consider the next compound.
q: Can O=C(Cc1ccc2ccccc2c1)NC1CC2(CCC2)Oc2ccc(Cl)cc21 (centres unmarked) be said to have inhibition at 10 µM at or above 90%?
a: label 0

----------
- ASSAYED SYSTEM: Human TRPV3 (Homo sapiens)
- Construct: expressed in transfected cells; host or cells: CHO cells (G-418 selected)
- Sequence (Q8NET8 1-790): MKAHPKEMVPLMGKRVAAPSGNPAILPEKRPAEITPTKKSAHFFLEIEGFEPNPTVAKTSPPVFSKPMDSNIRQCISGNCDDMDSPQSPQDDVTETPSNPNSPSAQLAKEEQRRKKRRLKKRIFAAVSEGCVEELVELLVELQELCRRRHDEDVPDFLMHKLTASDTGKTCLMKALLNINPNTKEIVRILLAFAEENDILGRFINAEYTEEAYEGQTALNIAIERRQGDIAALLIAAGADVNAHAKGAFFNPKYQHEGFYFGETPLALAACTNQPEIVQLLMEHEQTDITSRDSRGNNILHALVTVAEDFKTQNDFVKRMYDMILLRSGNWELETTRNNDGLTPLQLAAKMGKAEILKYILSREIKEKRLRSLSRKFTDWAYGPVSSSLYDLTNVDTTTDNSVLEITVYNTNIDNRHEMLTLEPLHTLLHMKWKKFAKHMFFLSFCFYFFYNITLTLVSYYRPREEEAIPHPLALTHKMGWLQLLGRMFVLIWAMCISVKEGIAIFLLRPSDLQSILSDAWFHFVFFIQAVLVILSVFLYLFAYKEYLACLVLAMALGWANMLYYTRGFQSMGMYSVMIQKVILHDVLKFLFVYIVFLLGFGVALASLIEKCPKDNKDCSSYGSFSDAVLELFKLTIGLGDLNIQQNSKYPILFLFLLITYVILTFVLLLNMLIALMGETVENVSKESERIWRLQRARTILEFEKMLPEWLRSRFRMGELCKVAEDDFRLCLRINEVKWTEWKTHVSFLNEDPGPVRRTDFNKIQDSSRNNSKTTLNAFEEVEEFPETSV
- ASSAY REMARKS: 45Calcium uptake assay: inhibition of 2-APB induced cellular uptake of radioactive calcium
- Type: cell-based
- CONDITIONS USED: 10.0 μM compound; human TRPV3 expressing CHO cells; 2-APB 500 μM; read-out: Percentage inhibition at 10.0 μM
Cut-off 80% on inhibition at 10 µM, inclusive. At or above means YES; below means NO.

Known results for compounds:
COc1ccc(CC(=O)NC2CC3(CCC3)Oc3ccc(Cl)cc32)cc1OC (centres unmarked)    NO
O=C(CCc1ccccc1OC1CCCC1)N[C@H]1CC2(CCC2)Oc2cc(OCc3ccccc3)ccc21    NO
CC(C)Oc1c(CCC(=O)NC2CC3(CCC3)Oc3c(Cl)cccc32)cccc1NS(C)(=O)=O (centres unmarked)    YES
O=C(Cc1ccccc1)NC1CC2(CCC2)Oc2c(Cl)cccc21 (centres unmarked)    NO
CC(C)Oc1c(CCC(=O)NC2CC3(CCC3)Oc3ccc(Cl)cc32)cccc1NS(C)(=O)=O (centres unmarked)    YES

q: # bool: inhibition at 10 µM of COc1cccc(CCC(=O)NC2CC3(CCCCC3)Oc3ccc(Cl)cc32)c1OC1CCCC1 (centres unmarked) >= 80%
a: NO

q: Is reported inhibition at 10 µM greater than or equal to 80% here: COc1cccc(CCCC(=O)NC2CC3(CCC3)Oc3c(Cl)cc(F)cc32)c1OC1CCCC1 (centres unmarked)
a: YES
